Values from PubChem BioAssay (NCI)

# System: SK-MEL-5 melanoma
# ASSAY COMMENT: NCI tumour cell line growth inhibition, 48 h; in the data active = GI50 below about 0.43 µM; inactive = the rest
# valid calls are 1 = active, 0 = inactive; nothing else

> print(dat)
                                   molecule             system  classification
1  O=C1c2cccc3cccc(c23)C(=O)N1CCCCN1CCN(CCCCOc2ccc(-c3nc4ccc(N5CCOCC5)cc4[nH]3)cc2)CC1  SK-MEL-5 melanoma               0
2  COc1cc(C(=O)N2CCN(c3ccccc3OC)CC2)c(N)cc1OCc1ccccc1  SK-MEL-5 melanoma               0
3  COc1ccc(Cn2cnc3cc(C(=O)Nc4cccc5ccccc45)ccc32)c(OC)c1  SK-MEL-5 melanoma               1
4  CCCCCCCCCCCCCC(=O)OC(/C=C/C(C)C)C(O)C(O)C(OC)C(=O)NC1CCCCNC1=O (centres undefined)  SK-MEL-5 melanoma               0
5  COc1ccc2cc3[n+](cc2c1OC)CCc1cc2c(cc1-3)OCO2  SK-MEL-5 melanoma               0
6         c1ccc2c(-c3nc4ccccc4[nH]3)cccc2c1  SK-MEL-5 melanoma               0
7             Oc1ccccc1Nc1nc2ccccc2c2occc12  SK-MEL-5 melanoma               0
8  C/C1=C\CC[C@@]2(C)O[C@@H]2C[C@@H]2[C@H](C/C(C)=C/CC1)OC(=O)C21CCN=N1 (some centres undefined)  SK-MEL-5 melanoma               0

Query molecule follows.
Challenge: Test call for this molecule, please: O=C1/C(=C/c2ccc(Cl)cc2)CN(Cc2cn(CCNc3ccnc4cc(Cl)ccc34)nn2)C/C1=C\c1ccc(Cl)cc1
Response given: 0
